Molecular target: Mu-type opioid receptor (Cavia porcellus)
Sequence (P97266 whole entry): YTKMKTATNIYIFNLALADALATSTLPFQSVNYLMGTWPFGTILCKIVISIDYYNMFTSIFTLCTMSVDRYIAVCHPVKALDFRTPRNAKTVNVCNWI
Assay: Functional bioactivity against mu opioid receptor in guinea-pig ileum
Residues, ends and D or L forms follow the SMILES beside them.
Observation Type: pIC50
Lab note: report pIC50 as minus log10 of the concentration in molar units, number only.

Q. Mu-type opioid receptor (Cavia porcellus) / pIC50 / Cc1cc(O)cc(C)c1C[C@H](N)C(=O)N1Cc2ccccc2C[C@H]1C(=O)N[C@@H](CCC(=O)O)C(=O)N[C@@H](CN1C(=O)c2cc3ccc(N(C)C)cc3cc2C1=O)C(N)=O (HELM PEPTIDE1{[Cc1cc(O)cc(C)c1C[C@H](N)C(=O)[*:2]].[Tic].E.[CN(C)c1ccc2cc3c(cc2c1)C(=O)N(C[C@H](N[*:1])C(=O)[*:2])C3=O].[am]}$$$$V2.0) : value?
A. 7.00

Q. Then this molecule: "CN(C)c1ccc2cc3c(cc2c1)C(=O)N(C[C@H](NC(=O)[C@@H]1CCCN1C(=O)[C@@H](N)Cc1ccc(O)cc1)C(=O)N[C@@H](Cc1ccccc1)C(N)=O)C3=O"
A. 6.41

---

Field: IC50. Provide a value for each of the molecules that follow.
Target: UniProtKB P97266
Experiment: Functional bioactivity against mu opioid receptor in guinea-pig ileum
Residues, ends and D or L forms follow the SMILES beside them.
Express the result in nM but write the number alone.

Q. Which value of IC50 has been reported for CN(C)c1ccc2cc3c(cc2c1)C(=O)N(C[C@H](NC(=O)CCCCCNC(=O)[C@H](Cc1ccccc1)NC(=O)[C@H](Cc1ccccc1)NC(=O)[C@@H]1CCCN1C(=O)[C@@H](N)Cc1ccc(O)cc1)C(N)=O)C3=O (HELM PEPTIDE1{Y.P.F.F.[O=C(CCCCCN[*:1])[*:2]].[CN(C)c1ccc2cc3c(cc2c1)C(=O)N(C[C@H](N[*:1])C(=O)[*:2])C3=O].[am]}$$$$V2.0) in the records?
A. 253

Q. Then this molecule: "N[C@@H](Cc1ccc(O)cc1)C(=O)N1CCC[C@H]1C(=O)N[C@@H](Cc1ccccc1)C(=O)N[C@@H](Cc1ccccc1)C(=O)NCCCCC/N=C(S)/N=C1/C=CC(=C2c3ccc(O)cc3Oc3cc(O)ccc32)C(C(=O)O)=C1"
A. 120

Q. Then this molecule: "Cc1cc(O)cc(C)c1C[C@H](N)C(=O)N1Cc2ccccc2C[C@H]1C(=O)N[C@@H](CCC(=O)O)C(=O)NCCCCCC(=O)N[C@@H](CN1C(=O)c2cc3ccc(N(C)C)cc3cc2C1=O)C(N)=O"
A. 244
